test_summary: Pharmacokinetics of ginsenosides in plasma after a single oral dose of 6 g FRG or RG, crossover clinical trial
Assay type: in vivo, human
condition_summary: human, in vivo, po, after 6 g FRG oral single dose, median (min, max); read-out: Tmax
quantity_name: Tmax (h)
Report only the number, with the unit h understood.

q: Return Tmax (reported value) for this molecule: CC(C)=CCC[C@](C)(O)[C@H]1CC[C@]2(C)[C@@H]1[C@H](O)C[C@@H]1[C@@]3(C)CC[C@H](O[C@@H]4O[C@H](CO)[C@@H](O)[C@H](O)[C@H]4O)C(C)(C)[C@@H]3CC[C@]12C [Rh2]
a: 3.02

* * *

test_summary: Pharmacokinetics of ginsenosides in plasma after a single oral dose of 6 g FRG or RG, crossover clinical trial
Assay type: in vivo, human
condition_summary: human, in vivo, po, plasma, after 6 g FRG oral single dose, mean ± SD; read-out: AUClast
quantity_name: AUC(0-t)
Put your answer as a value accompanied by its unit after it.

q: Return AUC(0-t) (reported value) for this molecule: CC(C)=CCC[C@](C)(O)[C@H]1CC[C@]2(C)[C@@H]1[C@H](O)C[C@@H]1[C@@]3(C)CC[C@H](O[C@@H]4O[C@H](CO)[C@@H](O)[C@H](O)[C@H]4O)C(C)(C)[C@@H]3CC[C@]12C [Rh2]
a: 133 ng·h/mL

* * *

test_summary: Pharmacokinetics of ginsenosides in plasma after a single oral dose of 6 g FRG or RG, crossover clinical trial
Assay type: in vivo, human
condition_summary: human, plasma, po, plasma, after 6 g RG oral single dose, 0 to 24 h, mean ± SD; read-out: AUC24
quantity_name: AUC
Put your answer as a value accompanied by its unit after it.

Some compounds with known AUC results, for comparison:
smiles_representation=CC(C)=CCC[C@](C)(O)[C@H]1CC[C@]2(C)[C@@H]1[C@H](O)C[C@@H]1[C@@]3(C)CC[C@H](O)C(C)(C)[C@@H]3CC[C@]12C meas_value="13.9 ng·h/mL"
smiles_representation=CC(C)=CCC[C@](C)(O[C@@H]1O[C@H](CO[C@@H]2O[C@H](CO)[C@@H](O)[C@H](O)[C@H]2O)[C@@H](O)[C@H](O)[C@H]1O)[C@H]1CC[C@]2(C)[C@@H]1[C@H](O)C[C@@H]1[C@@]3(C)CC[C@H](O[C@@H]4O[C@H](CO)[C@@H](O)[C@H](O)[C@H]4O[C@@H]4O[C@H](CO)[C@@H](O)[C@H](O)[C@H]4O)C(C)(C)[C@@H]3CC[C@]12C meas_value="36.5 ng·h/mL"
smiles_representation=CC(C)=CCC[C@](C)(O[C@@H]1O[C@H](CO)[C@@H](O)[C@H](O)[C@H]1O)[C@H]1CC[C@]2(C)[C@@H]1[C@H](O)C[C@@H]1[C@@]3(C)CC[C@H](O)C(C)(C)[C@@H]3CC[C@]12C meas_value="158 ng·h/mL"

Next compound, AUC to be filled in.
q: Return AUC (reported value) for this compound: `CC(C)=CCC[C@](C)(O)[C@H]1CC[C@]2(C)[C@@H]1[C@H](O)C[C@@H]1[C@@]3(C)CC[C@H](O)C(C)(C)[C@@H]3[C@@H](O)C[C@]12C`
a: 34.1 ng·h/mL

* * *

test_summary: Pharmacokinetics of ginsenosides in plasma after a single oral dose of 6 g FRG or RG, crossover clinical trial
Assay type: in vivo, human
condition_summary: human, in vivo, po, AUClast
quantity_name: AUC(0-t)
Put your answer as a value accompanied by its unit after it.

q: Return AUC(0-t) (reported value) for this compound: `CC(C)=CCC[C@](C)(O[C@@H]1O[C@H](CO[C@@H]2OC[C@H](O)[C@H](O)[C@H]2O)[C@@H](O)[C@H](O)[C@H]1O)[C@H]1CC[C@]2(C)[C@@H]1[C@H](O)C[C@@H]1[C@@]3(C)CC[C@H](O)C(C)(C)[C@@H]3CC[C@]12C`
a: 32.5 ng·h/mL

* * *

test_summary: Pharmacokinetics of ginsenosides in plasma after a single oral dose of 6 g FRG or RG, crossover clinical trial
Assay type: in vivo, human
condition_summary: human, plasma, po, plasma, after 6 g RG oral single dose, healthy volunteers, mean ± SD, n = 15; read-out: Cmax
Catalogue of compounds with associated Cmax
Report only the number, with the unit ng/mL understood.

Some compounds with known Cmax results, for comparison:
smiles_representation=CC(C)=CCC[C@](C)(O)[C@H]1CC[C@]2(C)[C@@H]1[C@H](O)C[C@@H]1[C@@]3(C)CC[C@H](O)C(C)(C)[C@@H]3[C@@H](O)C[C@]12C meas_value=3.5
smiles_representation=CC(C)=CCC[C@](C)(O)[C@H]1CC[C@]2(C)[C@@H]1[C@H](O)C[C@@H]1[C@@]3(C)CC[C@H](O)C(C)(C)[C@@H]3CC[C@]12C meas_value=1.99

q: Return Cmax (reported value) for this compound: `CC(C)=CCC[C@](C)(O[C@@H]1O[C@H](CO[C@@H]2O[C@H](CO)[C@@H](O)[C@H](O)[C@H]2O)[C@@H](O)[C@H](O)[C@H]1O)[C@H]1CC[C@]2(C)[C@@H]1[C@H](O)C[C@@H]1[C@@]3(C)CC[C@H](O[C@@H]4O[C@H](CO)[C@@H](O)[C@H](O)[C@H]4O[C@@H]4O[C@H](CO)[C@@H](O)[C@H](O)[C@H]4O)C(C)(C)[C@@H]3CC[C@]12C`
a: 2.33

q: Return Cmax (reported value) for this compound: `CC(C)=CCC[C@](C)(O[C@@H]1O[C@H](CO)[C@@H](O)[C@H](O)[C@H]1O)[C@H]1CC[C@]2(C)[C@@H]1[C@H](O)C[C@@H]1[C@@]3(C)CC[C@H](O)C(C)(C)[C@@H]3CC[C@]12C`
a: 23.8

* * *

test_summary: Pharmacokinetics of ginsenosides in plasma after a single oral dose of 6 g FRG or RG, crossover clinical trial
Type: in vivo, human
condition_summary: human, plasma, po, plasma, after 6 g FRG oral single dose, healthy volunteers, mean ± SD, n = 15; read-out: Cmax
Experimental: This study was designed as a randomized, open-label, single-dose, 2-sequence, 2-period crossover study with a washout period of 2 weeks to compare the pharmacokinetic parameters of ginsenosides in RG and FRG. […] CY, CK, PPD, PPT, and Rh2 were analyzed as previously described. […] Data were analyzed and processed using the Analyst 1.6.2 program (SCIEX, Framingham, MA, USA). […]
quantity_name: Cmax
Put your answer as a value accompanied by its unit after it.

Some molecules with known Cmax results, for comparison:
molecule="CC(C)=CCC[C@](C)(O[C@@H]1O[C@H](CO)[C@@H](O)[C@H](O)[C@H]1O)[C@H]1CC[C@]2(C)[C@@H]1[C@H](O)C[C@@H]1[C@@]3(C)CC[C@H](O[C@@H]4O[C@H](CO)[C@@H](O)[C@H](O)[C@H]4O)C(C)(C)[C@@H]3CC[C@]12C [Ginsenoside F2]" quantity_name=Cmax meas_value="14.7 ng/mL"
molecule="CC(C)=CCC[C@](C)(O)[C@H]1CC[C@]2(C)[C@@H]1[C@H](O)C[C@@H]1[C@@]3(C)CC[C@H](O)C(C)(C)[C@@H]3[C@@H](O)C[C@]12C [PPT, protopanaxatriol]" quantity_name=Cmax meas_value="8.92 ng/mL"
molecule="CC(C)=CCC[C@](C)(O[C@@H]1O[C@H](CO)[C@@H](O)[C@H](O)[C@H]1O)[C@H]1CC[C@]2(C)[C@@H]1[C@H](O)C[C@@H]1[C@@]3(C)CC[C@H](O)C(C)(C)[C@@H]3CC[C@]12C [CK, compound K]" quantity_name=Cmax meas_value="1550 ng/mL"

Next molecule, Cmax to be filled in.
q: Return Cmax (reported value) for this molecule: CC(C)=CCC[C@](C)(O)[C@H]1CC[C@]2(C)[C@@H]1[C@H](O)C[C@@H]1[C@@]3(C)CC[C@H](O)C(C)(C)[C@@H]3CC[C@]12C [PPD, protopanaxadiol]
a: 5.65 ng/mL

* * *

test_summary: Pharmacokinetics of ginsenosides in plasma after a single oral dose of 6 g FRG or RG, crossover clinical trial
Assay type: in vivo, human
condition_summary: human, in vivo, po, plasma, after 6 g FRG oral single dose, healthy volunteers, mean ± SD, n = 15; read-out: Cmax
quantity_name: Cmax (ng/mL)
Report only the number, with the unit ng/mL understood.

q: Return Cmax (reported value) for this compound: `CC(C)=CCC[C@](C)(O)[C@H]1CC[C@]2(C)[C@@H]1[C@H](O)C[C@@H]1[C@@]3(C)CC[C@H](O[C@@H]4O[C@H](CO)[C@@H](O)[C@H](O)[C@H]4O)C(C)(C)[C@@H]3CC[C@]12C`
a: 33

* * *

Catalogue of molecules with associated Tmax
test_summary: Pharmacokinetics of ginsenosides in plasma after a single oral dose of 6 g FRG or RG, crossover clinical trial
Assay type: in vivo, human
condition_summary: human, plasma, po, after 6 g RG oral single dose, median (min, max); read-out: Tmax
Procedure: This study was designed as a randomized, open-label, single-dose, 2-sequence, 2-period crossover study with a washout period of 2 weeks to compare the pharmacokinetic parameters of ginsenosides in RG and FRG. […] CY, CK, PPD, PPT, and Rh2 were analyzed as previously described. […] Data were analyzed and processed using the Analyst 1.6.2 program (SCIEX, Framingham, MA, USA). […]
Report only the number, with the unit h understood.

Some molecules with known Tmax results, for comparison:
smiles_representation=CC(C)=CCC[C@](C)(O[C@@H]1O[C@H](CO[C@@H]2O[C@H](CO)[C@@H](O)[C@H](O)[C@H]2O)[C@@H](O)[C@H](O)[C@H]1O)[C@H]1CC[C@]2(C)[C@@H]1[C@H](O)C[C@@H]1[C@@]3(C)CC[C@H](O[C@@H]4O[C@H](CO)[C@@H](O)[C@H](O)[C@H]4O[C@@H]4O[C@H](CO)[C@@H](O)[C@H](O)[C@H]4O)C(C)(C)[C@@H]3CC[C@]12C meas_value=8
smiles_representation=CC(C)=CCC[C@](C)(O)[C@H]1CC[C@]2(C)[C@@H]1[C@H](O)C[C@@H]1[C@@]3(C)CC[C@H](O)C(C)(C)[C@@H]3[C@@H](O)C[C@]12C meas_value=19

q: Return Tmax (reported value) for this molecule: `CC(C)=CCC[C@](C)(O)[C@H]1CC[C@]2(C)[C@@H]1[C@H](O)C[C@@H]1[C@@]3(C)CC[C@H](O)C(C)(C)[C@@H]3CC[C@]12C`
a: 27.1

Data origin: paper PMC9784495
